Source of measurements: ChEMBL document CHEMBL1772966

Assay: Cytotoxicity against human HPLF cells after 48 hrs
Format: cell-based

| chemical_string | unit_of_measure | CC50 at 48 h |
| --- | --- | --- |
| O=C1/C(=C/c2ccc([N+](=O)[O-])cc2)CN(C(=O)CCSCCO)C/C1=C\c1ccc([N+](=O)[O-])cc1 | µM | 6.4 |
| COc1ccc(/C=C2\CN(C(=O)CCSCCO)C/C(=C\c3ccc(OC)cc3)C2=O)cc1 | µM | 16 |
| Cc1ccc(/C=C2\CN(C(=O)CCSCCO)C/C(=C\c3ccc(C)cc3)C2=O)cc1 | µM | 8.4 |
| O=C1/C(=C/c2ccccc2)CN(C(=O)CCSCCO)C/C1=C\c1ccccc1 | µM | 13 |
| O=C1/C(=C/c2ccc(Cl)cc2)CN(C(=O)CCSCCO)C/C1=C\c1ccc(Cl)cc1 | µM | 8.6 |
